target: human FXR (NR1H4) (Homo sapiens (Human), UniProt Q96RI1); assay: Human FXR (NR1H4) Assay (Gal4 promoter driven luciferase reporter, Indigo Bioscience kit IB00601); type: cell-based; conditions: efficacy normalized to CDCA set as 100%
Sequence (Q96RI1 whole entry, the tested form may be a part): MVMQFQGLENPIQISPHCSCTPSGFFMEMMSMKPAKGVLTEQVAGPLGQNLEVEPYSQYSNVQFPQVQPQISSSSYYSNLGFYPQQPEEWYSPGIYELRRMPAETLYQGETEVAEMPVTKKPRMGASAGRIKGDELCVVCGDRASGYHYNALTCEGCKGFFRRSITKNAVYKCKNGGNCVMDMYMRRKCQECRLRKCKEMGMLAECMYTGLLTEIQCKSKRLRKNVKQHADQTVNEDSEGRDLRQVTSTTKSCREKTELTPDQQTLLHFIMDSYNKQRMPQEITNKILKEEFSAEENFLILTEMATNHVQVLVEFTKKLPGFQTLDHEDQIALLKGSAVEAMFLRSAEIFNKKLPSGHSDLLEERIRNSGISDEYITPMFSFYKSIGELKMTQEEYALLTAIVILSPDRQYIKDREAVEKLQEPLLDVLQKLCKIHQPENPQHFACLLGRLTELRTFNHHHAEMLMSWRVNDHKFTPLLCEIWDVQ
Efficacy (%) strictly less than 300% = class 1. Otherwise class 0.

structure_as_smiles=CC[C@H]1[C@@H](O)[C@@H]2[C@H](CC[C@]3(C)[C@@H]([C@H](C)CCNS(=O)(=O)C(C)(C)C(=O)O)CC[C@@H]23)[C@@]2(C)CC[C@@H](O)C[C@@H]12 class_name="class 1"
structure_as_smiles=CC[C@H]1[C@@H](O)[C@@H]2[C@H](CC[C@]3(C)[C@@H]([C@H](C)CCNC(=O)NS(=O)(=O)c4ccc5ccccc5c4)CC[C@@H]23)[C@@]2(C)CC[C@@H](O)C[C@@H]12 class_name="class 0"
structure_as_smiles=CC[C@H]1[C@@H](O)[C@@H]2[C@H](CC[C@]3(C)[C@@H]([C@H](C)CCNC(=O)NS(=O)(=O)c4ccncc4)CC[C@@H]23)[C@@]2(C)CC[C@@H](O)C[C@@H]12 class_name="class 1"
structure_as_smiles=CC[C@H]1[C@@H](O)[C@@H]2[C@H](CC[C@]3(C)[C@@H]([C@H](C)CCNC(=O)NS(=O)(=O)c4cc(F)cc(F)c4)CC[C@@H]23)[C@@]2(C)CC[C@@H](O)C[C@@H]12 class_name="class 1"
structure_as_smiles=CC[C@H]1[C@@H](O)[C@@H]2[C@H](CC[C@]3(C)[C@@H]([C@H](C)CCNC(=O)NS(=O)(=O)N(C(C)C)C(C)C)CC[C@@H]23)[C@@]2(C)CC[C@@H](O)C[C@@H]12 class_name="class 1"

----------
biological target: UniProt:Q96RI1; assay: Human FXR (NR1H4) Assay (Gal4 promoter driven luciferase reporter, Indigo Bioscience kit IB00601); details: potency ranges
Collected EC50 values appear next to each entry.
result type: EC50

molecule="CC[C@H]1[C@@H](O)[C@@H]2[C@H](CC[C@]3(C)[C@@H]([C@H](C)CNC(=O)NS(=O)(=O)c4cccc(OC(F)(F)F)c4)CC[C@@H]23)[C@@]2(C)CC[C@@H](O)C[C@@H]12 [Example 116]" result_type=EC50 experimental_value="< 100 nM"
molecule="CC[C@H]1[C@@H](O)[C@@H]2[C@H](CC[C@]3(C)[C@@H]([C@H](C)CCNC(=O)NS(=O)(=O)c4ccc(-c5ccno5)cc4OC)CC[C@@H]23)[C@@]2(C)CC[C@@H](O)C[C@@H]12 [Example 73]" result_type=EC50 experimental_value="100 to 1000 nM"
molecule="CC[C@H]1[C@@H](O)[C@@H]2[C@H](CC[C@]3(C)[C@@H]([C@H](C)CCNC(=O)NS(=O)(=O)c4nccs4)CC[C@@H]23)[C@@]2(C)CC[C@@H](O)C[C@@H]12 [Example 100]" result_type=EC50 experimental_value="1000 to 10000 nM"
molecule="CC[C@H]1[C@@H](O)[C@@H]2[C@H](CC[C@]3(C)[C@@H]([C@H](C)CCNC(=O)NS(C)(=O)=O)CC[C@@H]23)[C@@]2(C)CC[C@@H](O)C[C@@H]12 [Example 6]" result_type=EC50 experimental_value="100 to 1000 nM"
molecule="CC[C@H]1[C@@H](O)[C@@H]2[C@H](CC[C@]3(C)[C@@H]([C@H](C)CCNC(=O)NS(=O)(=O)N4CCC5(CC4)COC5)CC[C@@H]23)[C@@]2(C)CC[C@@H](O)C[C@@H]12 [Example 74]" result_type=EC50 experimental_value="100 to 1000 nM"
molecule="CC[C@H]1[C@@H](O)[C@@H]2[C@H](CC[C@]3(C)[C@@H]([C@H](C)CCNS(=O)(=O)CC(=O)O)CC[C@@H]23)[C@@]2(C)CC[C@@H](O)C[C@@H]12 [Example 132]" result_type=EC50 experimental_value="1000 to 10000 nM"
molecule="CC[C@H]1[C@@H](O)[C@@H]2[C@H](CC[C@]3(C)[C@@H]([C@H](C)CCNC(=O)NS(=O)(=O)c4ccncc4)CC[C@@H]23)[C@@]2(C)CC[C@@H](O)C[C@@H]12 [Example 49]" result_type=EC50 experimental_value="1000 to 10000 nM"
molecule="CC[C@H]1[C@@H](O)[C@@H]2[C@H](CC[C@]3(C)[C@@H]([C@H](C)CCNC(=O)NS(=O)(=O)c4ccc(C(C)(C)CO)cc4)CC[C@@H]23)[C@@]2(C)CC[C@@H](O)C[C@@H]12 [Example 69]" result_type=EC50 experimental_value="< 100 nM"
molecule="CC[C@H]1[C@@H](O)[C@@H]2[C@H](CC[C@]3(C)[C@@H]([C@H](C)CCNC(=O)NS(=O)(=O)c4ccc5c(c4)CCCC5)CC[C@@H]23)[C@@]2(C)CC[C@@H](O)C[C@@H]12 [Example 57]" result_type=EC50 experimental_value="< 100 nM"
molecule="CC[C@H]1[C@@H](O)[C@@H]2[C@H](CC[C@]3(C)[C@@H]([C@H](C)CCNC(=O)NS(=O)(=O)Nc4ccc(C(C)(C)C)cc4)CC[C@@H]23)[C@@]2(C)CC[C@@H](O)C[C@@H]12 [Example 105]" result_type=EC50 experimental_value="100 to 1000 nM"
molecule="CC[C@H]1[C@@H](O)[C@@H]2[C@H](CC[C@]3(C)[C@@H]([C@H](C)CCNC(=O)NS(=O)(=O)C4CCCC4)CC[C@@H]23)[C@@]2(C)CC[C@@H](O)C[C@@H]12 [Example 27]" result_type=EC50 experimental_value="< 100 nM"
molecule="CC[C@H]1[C@@H](O)[C@@H]2[C@H](CC[C@]3(C)[C@@H]([C@H](C)CCNC(=O)NS(=O)(=O)c4ccc(OC(F)(F)F)cc4)CC[C@@H]23)[C@@]2(C)CC[C@@H](O)C[C@@H]12 [Example 2]" result_type=EC50 experimental_value="< 100 nM"
molecule="CC[C@H]1[C@@H](O)[C@@H]2[C@H](CC[C@]3(C)[C@@H]([C@H](C)CCNC(=O)NS(=O)(=O)C4CCC(F)(F)CC4)CC[C@@H]23)[C@@]2(C)CC[C@@H](O)C[C@@H]12 [Example 89]" result_type=EC50 experimental_value="< 100 nM"
molecule="CC[C@H]1[C@@H](O)[C@@H]2[C@H](CC[C@]3(C)[C@@H]([C@H](C)CNC(=O)NS(=O)(=O)c4ccc(N5CCCCC5)cc4)CC[C@@H]23)[C@@]2(C)CC[C@@H](O)C[C@@H]12 [Example 118]" result_type=EC50 experimental_value="< 100 nM"
molecule="CC[C@H]1[C@@H](O)[C@@H]2[C@H](CC[C@]3(C)[C@@H]([C@H](C)CCNC(=O)NS(=O)(=O)c4ccc5c(c4)OCCO5)CC[C@@H]23)[C@@]2(C)CC[C@@H](O)C[C@@H]12 [Example 58]" result_type=EC50 experimental_value="< 100 nM"
molecule="CC[C@H]1[C@@H](O)[C@@H]2[C@H](CC[C@]3(C)[C@@H]([C@H](C)CCNC(=O)NS(=O)(=O)C(F)(F)F)CC[C@@H]23)[C@@]2(C)CC[C@@H](O)C[C@@H]12 [Example 104]" result_type=EC50 experimental_value="1000 to 10000 nM"
molecule="CC[C@H]1[C@@H](O)[C@@H]2[C@H](CC[C@]3(C)[C@@H]([C@H](C)CCNS(=O)(=O)O)CC[C@@H]23)[C@@]2(C)CC[C@@H](O)C[C@@H]12 [Example 131]" result_type=EC50 experimental_value="1000 to 10000 nM"
